target: Recombinant human mPGES-1 (Homo sapiens, UniProt O14684); construct: made in house; host or cells: CHO cells; test: In-vitro mPGES-1 inhibitor screening (inhibition of PGE2 formation from PGH2, HTRF detection); format: biochemical; settings: 10 μM test compound; crude microsomal fraction, 15 μM PGH2; read-out: Percentage inhibition at 10 μM
assay_endpoint: inhibition at 10 µM (%)

[[record]]
cpd_smiles = "CC1(C)CCC(Oc2ncnc3c(NC(=O)c4cc(CNC(=O)C(C)(C)C)ccc4Cl)cccc23)CC1"
assay_endpoint = "inhibition at 10 µM"
observed = 97.5

[[record]]
cpd_smiles = "CC(C)C(=O)NCc1cnc(C(F)F)c(C(=O)Nc2cccc3c(Oc4cccc(C(F)(F)F)c4)ncnc23)c1"
assay_endpoint = "inhibition at 10 µM"
observed = 100

[[record]]
cpd_smiles = "CC(C)(C)Nc1ncnc2c(NC(=O)c3cc(CNC(=O)C(C)(C)C)ccc3Cl)cccc12"
assay_endpoint = "inhibition at 10 µM"
observed = 100

[[record]]
cpd_smiles = "CC(C)(C)C(=O)NCc1ccc(Cl)c(C(=O)Nc2cccc3c(Nc4cccc(C(F)(F)F)c4)nccc23)c1F"
assay_endpoint = "inhibition at 10 µM"
observed = 96.7

[[record]]
cpd_smiles = "Cc1nc(NC2CCC(F)(F)CC2)c2cccc(NC(=O)c3c(Cl)ccc(CNC(=O)C(C)(C)C)c3F)c2n1"
assay_endpoint = "inhibition at 10 µM"
observed = 91.7

[[record]]
cpd_smiles = "Cc1nc(NC(C)(C)C)c2cccc(NC(=O)c3c(Cl)ccc(CNC(=O)C(C)(C)C)c3F)c2n1"
assay_endpoint = "inhibition at 10 µM"
observed = 93

[[record]]
cpd_smiles = "Cc1ccc(CNC(=O)C(C)(C)C)c(C)c1C(=O)Nc1cccc2c(NC(C)(C)C)ncnc12"
assay_endpoint = "inhibition at 10 µM"
observed = 100

[[record]]
cpd_smiles = "CC(C)(C)C(=O)NCc1ccc(Cl)c(C(=O)Nc2cccc3c(O[C@H]4CC[C@H](C(F)(F)F)CC4)ncnc23)c1F"
assay_endpoint = "inhibition at 10 µM"
observed = 93.9

[[record]]
cpd_smiles = "Cc1nc(NC(C)C)c2cccc(NC(=O)c3c(Cl)ccc(CNC(=O)C(C)(C)C)c3F)c2n1"
assay_endpoint = "inhibition at 10 µM"
observed = 96

[[record]]
cpd_smiles = "CC(C)(C)C(=O)NCc1ccc(Cl)c(C(=O)Nc2cccc3c(O[C@H]4CC[C@H](C(F)(F)F)CC4)nccc23)c1F"
assay_endpoint = "inhibition at 10 µM"
observed = 99.6

[[record]]
cpd_smiles = "CC(C)(C)C(=O)NCc1ccc(Cl)c(C(=O)Nc2cccc3c(Oc4cc(C(F)(F)F)ccc4F)nccc23)c1"
assay_endpoint = "inhibition at 10 µM"
observed = 97.6

[[record]]
cpd_smiles = "CC(C)(C)C(=O)NCc1ccc(Cl)c(C(=O)Nc2cccc3c(Oc4cccc(C(F)(F)F)c4)nccc23)c1"
assay_endpoint = "inhibition at 10 µM"
observed = 96.7

[[record]]
cpd_smiles = "CC1(C)CCC(Oc2ncnc3c(NC(=O)c4c(Cl)ccc(CNC(=O)C(C)(C)C)c4F)cccc23)CC1"
assay_endpoint = "inhibition at 10 µM"
observed = 99.8

[[record]]
cpd_smiles = "CC1(C)CCC(Oc2nccc3c(NC(=O)c4c(Cl)ccc(CNC(=O)C(C)(C)C)c4F)cccc23)CC1"
assay_endpoint = "inhibition at 10 µM"
observed = 100

[[record]]
cpd_smiles = "CC(C)Oc1ncnc2c(NC(=O)c3c(Cl)ccc(CNC(=O)C(C)(C)C)c3F)cccc12"
assay_endpoint = "inhibition at 10 µM"
observed = 99.4

[[record]]
cpd_smiles = "CC(C)(C)C(=O)NCc1ccc(Cl)c(C(=O)Nc2cccc3c(Oc4cccc(C(F)(F)F)c4)nccc23)c1F"
assay_endpoint = "inhibition at 10 µM"
observed = 98.5

[[record]]
cpd_smiles = "CC(C)(C)C(=O)NCc1ccc(Cl)c(C(=O)Nc2cccc3c(Oc4cccc(C(F)(F)F)c4)ccnc23)c1"
assay_endpoint = "inhibition at 10 µM"
observed = 99.6

[[record]]
cpd_smiles = "CC(C)(C)C(=O)NCc1ccc(Cl)c(C(=O)Nc2cccc3c(Oc4cc(C(F)(F)F)ccc4F)ccnc23)c1F"
assay_endpoint = "inhibition at 10 µM"
observed = 98.5

[[record]]
cpd_smiles = "CC(C)(C)C(=O)NCc1ccc(Cl)c(C(=O)Nc2cccc3c(Nc4cc(C(F)(F)F)ccc4F)ncnc23)c1F"
assay_endpoint = "inhibition at 10 µM"
observed = 97.2

[[record]]
cpd_smiles = "CC(C)(C)C(=O)NCc1ccc(Cl)c(C(=O)Nc2cccc3c(Nc4cccc(C(F)(F)F)c4)ncnc23)n1"
assay_endpoint = "inhibition at 10 µM"
observed = 98

[[record]]
cpd_smiles = "CC(C)C(=O)NCc1cnc(C(F)F)c(C(=O)Nc2cccc3c(NCC(F)(F)F)ncnc23)c1"
assay_endpoint = "inhibition at 10 µM"
observed = 94.8

[[record]]
cpd_smiles = "CC(C)(C)C(=O)NCc1ccc(Cl)c(C(=O)Nc2cccc3c(Oc4cccc(C(F)(F)F)c4)ccnc23)n1"
assay_endpoint = "inhibition at 10 µM"
observed = 93.9


====

target: Recombinant human mPGES-1 (Homo sapiens, UniProt O14684); construct: made in house; host or cells: CHO cells; assay: In-vitro mPGES-1 inhibitor screening (inhibition of PGE2 formation from PGH2, HTRF detection); type: biochemical; conditions: 1 μM test compound; crude microsomal fraction, 15 μM PGH2; read-out: Percentage inhibition at 1 μM
assay_endpoint: inhibition at 1 µM (%)

A = O=C(Nc1cccc2c(Nc3cc(C(F)(F)F)ccc3F)ncnc12)c1c(F)cccc1Cl
B = Cc1nc(N2CCOCC2)c2cccc(NC(=O)c3c(Cl)ccc(CNC(=O)C(C)(C)C)c3F)c2n1
IN: Hi there! Just curious which has the higher inhibition at 1 µM between A and B . Please reply using the label of the selected record.
OUT: A
(A: 75.4%, B: 51.3%)

====

Target: Recombinant human mPGES-1 (Homo sapiens, UniProt O14684)
Construct: made in house; host or cells: CHO cells
Sequence (O14684 1-152): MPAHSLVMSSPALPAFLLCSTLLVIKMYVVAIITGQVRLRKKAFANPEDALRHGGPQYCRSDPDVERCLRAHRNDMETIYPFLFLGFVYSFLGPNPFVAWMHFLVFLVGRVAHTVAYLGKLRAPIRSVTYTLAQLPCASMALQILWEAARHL
Test: In-vitro mPGES-1 inhibitor screening (inhibition of PGE2 formation from PGH2, HTRF detection)
Assay type: biochemical
Settings: 10 μM test compound; crude microsomal fraction, 15 μM PGH2; read-out: Percentage inhibition at 10 μM
assay_endpoint: inhibition at 10 µM (%)

[[record]]
compound = "CC(C)(C)Nc1ncnc2c(NC(=O)c3c(Cl)ccc(CNC(=O)C(C)(C)CF)c3F)cccc12 [Example-79]"
observed = 99.1

[[record]]
compound = "CCOc1ccnc2c(NC(=O)c3c(Cl)ccc(CNC(=O)C(C)(C)C)c3F)cccc12 [Example-63]"
observed = 94.7

[[record]]
compound = "Cc1nc(Nc2cccc(C(F)(F)F)c2)c2cccc(NC(=O)c3c(Cl)ccc(CNC(=O)C(C)(C)C)c3F)c2n1 [Example-33]"
observed = 97.2

[[record]]
compound = "CC(C)(C)C(=O)NCc1ccc(Cl)c(C(=O)Nc2ccnc3c(Nc4cccc(C(F)(F)F)c4)cccc23)c1 [Example-19]"
observed = 98.2

[[record]]
compound = "CC(C)(C)Nc1ncnc2c(NC(=O)c3c(Cl)ccc(CNC(=O)C(C)(C)CO)c3F)cccc12 [Example-69]"
observed = 98.2

[[record]]
compound = "CC(C)Nc1ncnc2c(NC(=O)c3cc(CNC(=O)C(C)C)cnc3C(F)F)cccc12 [Example-76]"
observed = 93.4

[[record]]
compound = "CC(C)(C)C(=O)NCc1ccc(Cl)c(C(=O)Nc2cccc3c(Oc4cccc(C(F)(F)F)c4)ccnc23)c1F [Example-18]"
observed = 99.9

[[record]]
compound = "CC(C)(C)C(=O)NCc1ccc(Cl)c(C(=O)Nc2cccc3c(Oc4cccc(C(F)(F)F)c4)nccc23)n1 [Example-6]"
observed = 95.9

[[record]]
compound = "CC(C)(C)C(=O)NCc1ccc(Cl)c(C(=O)Nc2cccc3c(NC4CCC(F)(F)CC4)ncnc23)c1 [Example-14]"
observed = 100

[[record]]
compound = "CC(C)(C)C(=O)NCc1ccc(Cl)c(C(=O)Nc2cccc3c(Oc4ccc(F)c(C(F)(F)F)c4)nccc23)c1 [Example-48]"
observed = 95.2

[[record]]
compound = "CC(C)(C)C(=O)NCc1ccc(Cl)c(C(=O)Nc2cccc3c(Oc4ccc(F)c(C(F)(F)F)c4)ncnc23)c1F [Example-52]"
observed = 95.3

[[record]]
compound = "CN(C)c1ncnc2c(NC(=O)c3c(Cl)ccc(CNC(=O)C(C)(C)C)c3F)cccc12 [Example-61]"
observed = 97.2

[[record]]
compound = "CC(C)(C)C(=O)NCc1ccc(Cl)c(C(=O)Nc2cccc3c(Oc4ccc(C(F)(F)F)cc4)ccnc23)c1F [Example-53]"
observed = 98.3

[[record]]
compound = "CC(C)(C)C(=O)NCc1ccc(Cl)c(C(=O)Nc2cccc3c(O[C@H]4CC[C@H](C(F)(F)F)CC4)nccc23)c1 [Example-38]"
observed = 99.9

[[record]]
compound = "CC(C)C(=O)NCc1ccc(Cl)c(C(=O)Nc2cccc3c(NCC(F)(F)F)ncnc23)c1F [Example-73]"
observed = 93.2

[[record]]
compound = "CC1(C)CCC(Nc2ncnc3c(NC(=O)c4c(Cl)ccc(CNC(=O)C(C)(C)C)c4F)cccc23)CC1 [Example-22]"
observed = 99.6

[[record]]
compound = "CC(C)(C)C(=O)NCc1ccc(Cl)c(C(=O)Nc2cccc3c(N[C@H]4CC[C@H](C(F)(F)F)CC4)ncnc23)c1F [Example-37]"
observed = 96.3

[[record]]
compound = "CC(C)C(=O)NCc1ccc(Cl)c(C(=O)Nc2cccc3c(NC(C)(C)C)ncnc23)c1F [Example-70]"
observed = 98.8

[[record]]
compound = "CC(C)Nc1ncnc2c(NC(=O)c3c(Cl)ccc(CNC(=O)C(C)C)c3F)cccc12 [Example-77]"
observed = 99.9

[[record]]
compound = "Cc1nc(Oc2cccc(C(F)(F)F)c2)c2cccc(NC(=O)c3c(Cl)ccc(CNC(=O)C(C)(C)C)c3F)c2n1 [Example-56]"
observed = 99.3

[[record]]
compound = "CC(C)(C)Nc1ncnc2c(NC(=O)c3cc(CNC(=O)C(C)(C)C)c(F)cc3Cl)cccc12 [Example-71]"
observed = 97.3

[[record]]
compound = "CC(C)(C)C(=O)NCc1ccc(Cl)c(C(=O)Nc2cccc3c(Nc4cccc(C(F)(F)F)c4)ncnc23)c1F [Example-12]"
observed = 99.7

[[record]]
compound = "CC(C)(C)C(=O)NCc1ccc(Cl)c(C(=O)Nc2cccc3c(Oc4cccc(C(F)(F)F)c4)ncnc23)n1 [Example-9]"
observed = 100

[[record]]
compound = "CC(C)(C)C(=O)NCc1ccc(Cl)c(C(=O)Nc2cccc3c(Oc4cccc(C(F)(F)F)c4)ncnc23)c1F [Example-11]"
observed = 90.7

[[record]]
compound = "CC(C)(C)C(=O)NCc1ccc(Cl)c(C(=O)Nc2cccc3c(Nc4ccc(C(F)(F)F)cc4)nccc23)c1 [Example-45]"
observed = 98.3

[[record]]
compound = "Cc1ccc2c(Nc3cccc(C(F)(F)F)c3)ncnc2c1NC(=O)c1c(Cl)ccc(CNC(=O)C(C)(C)C)c1F [Example-42]"
observed = 99.6

[[record]]
compound = "CC(C)(C)C(=O)NCc1ccc(Cl)c(C(=O)Nc2cccc3c(O[C@H]4CC[C@H](C(F)(F)F)CC4)ncnc23)c1 [Example-39]"
observed = 99.5

[[record]]
compound = "CC(C)(C)C(=O)NCc1ccc(Cl)c(C(=O)Nc2cccc3c(Oc4ccc(F)c(C(F)(F)F)c4)ccnc23)c1F [Example-51]"
observed = 99.7

[[record]]
compound = "CC(C)(C)C(=O)NCc1ccc(Cl)c(C(=O)Nc2cccc3c(NC4CCC(F)(F)CC4)ncnc23)c1F [Example-20]"
observed = 99.4

